# System: HEPG2
# testName: Euclidean distance of Cell Painting phenotypic profile (signed KS, 77 features) to DMSO centroid (dimensionless distance); 5 or 10 uM (library dependent); higher = stronger phenotypic change vs DMSO (phenoactivity)
# runConditions: 48 h
Structures can show the parent of a compound that is named as a salt.
valueType: Euclidean distance
Respond with the number and no other words.

| compound | Euclidean distance |
| --- | --- |
| CO/N=C(\C(=O)N[C@@H]1C(=O)N2C(C(=O)O)=CCS[C@H]12)c1csc(N)n1 [Ceftizoxime] | 0.67 |
| CCN(CC)CC(=O)Nc1c(C)cccc1C [Lidocaine hydrochloride] | 0.656 |
| COc1cc(Nc2c(C#N)cnc3cc(OCCCN4CCN(C)CC4)c(OC)cc23)c(Cl)cc1Cl [Bosutinib (SKI-606)] | 3.22 |
| CO/N=C(\C(=O)N[C@@H]1C(=O)N2C(C(=O)O)=C(CSC(=O)c3ccco3)CS[C@H]12)c1csc(N)n1 | 1.81 |
| CN1CCN(C2=Nc3cc(Cl)ccc3Nc3ccccc32)CC1 | 1.03 |
| COc1cc2nc(N3CCN(C(=O)C4CCCO4)CC3)nc(N)c2cc1OC (configuration not stated) [Terazosin HCl Dihydrate] | 1.69 |

// next entry
What value of Euclidean distance has been recorded for this entry: CCC1(C)CC(=O)NC1=O (configuration not stated) [Ethosuximide]
0.843
